Conditions: 10 mg/mL cpd in 20% DMSO/saline
experimental-endpoint: Solubility

A selection of reference data follows.
compound	Solubility
CSCC[C@H]1NC(=O)CC(O)/C=C/CCSSC[C@H](C(=O)O)NC1=O (some centres unmarked)	Soluble
CCC(C)C(NC(=O)CC(O)/C=C/CCS)C(=O)OC (centres unmarked)	Soluble
CCCC[C@H]1NC(=O)C[C@H]2/C=C/CCSSC[C@@H](NC1=O)C(=O)N[C@H](C(C)CC)[C@@H](O)CC(=O)O2 (some centres unmarked) [TDP-B, Thailandepsin B, reference compound]	Not soluble
CCC(C)[C@H]1NC(=O)[C@H]2CSSCC/C=C/[C@H](CC(=O)N[C@H](CCSC)C(=O)N2)OC(=O)C[C@@H]1OCCC=O (some centres unmarked)	Not soluble

Name the recorded Solubility for O=C(CCCCCCC(=O)Nc1ccccc1)NO [SAHA, suberoyl anilide hydroxamic acid, reference compound] . Not soluble

Could you share which Solubility value was measured for CCCC[C@H](NC(=O)CC(O)/C=C/CCS)C(=O)O (some centres unmarked) ? Mostly soluble

May I ask what Solubility has been recorded for CCCC[C@H](NC(=O)CC(O)/C=C/CCS)C(=O)OC (some centres unmarked) ? Soluble

Endpoint output: Solubility of CCC(C)C(NC(=O)CC(O)/C=C/CCS)C(=O)O (centres unmarked) . Value? Mostly soluble
